The origin of these recorded values is ChEMBL document CHEMBL3098038.

tested on: Staphylococcus aureus; assay: Antibacterial activity against Staphylococcus aureus RN4220; format: functional
RESULT_TYPE: MIC
A bare number is not enough; add the unit after it.

Query: Which MIC reading was recorded for the compound COc1cc(O)c2c(=O)oc3c(-c4c(O)c(O)cc5oc(=O)c6c(O)cc(OC)cc6c45)c(O)c(O)cc3c2c1 ?
Response: 8 µg/mL

Query: Requested read-out: MIC. Entry: COc1cc(O)c2c(c1)[C@@]1(OC2=O)C(C)=CC(=O)[C@]12C(=O)c1c(O)c(O)cc3oc(=O)c4c(O)cc(OC)c2c4c13 (relative stereo)
Response: 32 µg/mL

Query: Give the measured MIC of Oc1cc(Cl)ccc1Oc1ccc(Cl)cc1Cl .
Response: 0.01 µg/mL

Query: Field request: MIC | item: COc1cc(O)c2c(=O)oc3cc(O)c(O)cc3c2c1
Response: 8 µg/mL

Query: For the compound shown here, COc1cc(O)c2c(=O)oc3cc(O)c(O)c(-c4c(O)c(O)cc5oc(=O)c6c(O)cc(OC)cc6c45)c3c2c1 , give the reported MIC.
Response: 8 µg/mL
